- ASSAY_TARGET: Neuronal acetylcholine receptor subunit alpha-7 (Homo sapiens, UniProt P36544)
- Sequence (P36544 whole entry): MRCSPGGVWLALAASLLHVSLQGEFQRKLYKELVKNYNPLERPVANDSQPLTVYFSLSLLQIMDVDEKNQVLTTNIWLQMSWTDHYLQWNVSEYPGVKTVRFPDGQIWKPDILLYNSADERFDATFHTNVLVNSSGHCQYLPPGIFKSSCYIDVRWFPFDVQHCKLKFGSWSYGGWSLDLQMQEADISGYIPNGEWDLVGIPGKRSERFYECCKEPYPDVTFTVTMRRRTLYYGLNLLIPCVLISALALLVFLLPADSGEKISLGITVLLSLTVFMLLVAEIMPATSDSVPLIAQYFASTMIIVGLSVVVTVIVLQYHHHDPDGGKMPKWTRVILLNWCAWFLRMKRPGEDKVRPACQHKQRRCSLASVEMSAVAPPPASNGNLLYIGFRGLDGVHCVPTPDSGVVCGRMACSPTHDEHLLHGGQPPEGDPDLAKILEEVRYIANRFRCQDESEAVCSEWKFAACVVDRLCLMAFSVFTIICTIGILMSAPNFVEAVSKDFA
- MEASUREMENT_NOTES: Antagonist activity at human alpha7 nAChR expressed in Xenopus laevis oocytes assessed as inhibition of ACh-induced inward current at -60 mV holding potential preincubated for 1 min followed by ACh addition by two-microelectrode voltage clamp assay
pIC50: −log10 of the molar value.
Measured pIC50 by item

COMPOUND: CN1CCCC1c1cncc(-c2cn(CCOCCOCCOCCOCCOCCOCCOCCOCCOCCOCCOCCn3cc(-c4cncc(C5CCCN5C)c4)nn3)nn2)c1 (centres undefined)
pIC50: 3.52
//
COMPOUND: CN1CCCC1c1cncc(-c2cn(CCOCCOCCOCCOCCOCCOCCOCCOCCOCCOCCOCCOCCOCCOCCOCCOCCOCCOCCOCCOCCOCCOCCOCCOCCOCCOCCOCCn3cc(-c4cncc(C5CCCN5C)c4)nn3)nn2)c1 (centres undefined)
pIC50: 4.68
//
COMPOUND: CN1CCCC1c1cncc(-c2cn(CCOCCOCCOCCn3cc(-c4cncc(C5CCCN5C)c4)nn3)nn2)c1 (centres undefined)
pIC50: 4.92
//
COMPOUND: CN1CCCC1c1cncc(-c2cn(CCOCCOCCOCCO)nn2)c1 (centres undefined)
pIC50: 3.71

###

Measured fold change (FC) by item
- ASSAY_TARGET: Neuronal acetylcholine receptor subunit alpha-7 (Homo sapiens)
- MEASUREMENT_NOTES: Antagonist activity at human alpha7 nAChR expressed in Xenopus laevis oocytes assessed as inhibition of ACh-induced inward current at -60 mV holding potential preincubated for 1 min followed by ACh addition by two-microelectrode voltage clamp assay relative to 2-(2-(2-(2-(4-(5-(1-methylpyrrolidin-2-yl)pyridin-3-yl)-1H-1,2,3-triazol-1-yl)ethoxy)ethoxy)ethoxy)ethanol
- Type: cell-based

MOLECULE: CN1CCCC1c1cncc(-c2cn(CCOCCOCCOCCOCCOCCOCCOCCOCCOCCOCCOCCn3cc(-c4cncc(C5CCCN5C)c4)nn3)nn2)c1 (stereo not given)
fold change (FC): 0.32

MOLECULE: CN1CCCC1c1cncc(-c2cn(CCOCCOCCOCCOCCOCCOCCOCCOCCOCCOCCOCCOCCOCCOCCOCCOCCOCCOCCOCCn3cc(-c4cncc(C5CCCN5C)c4)nn3)nn2)c1 (stereo not given)
fold change (FC): 0.61

MOLECULE: CN1CCCC1c1cncc(-c2cn(CCOCCOCCOCCOCCOCCOCCOCCn3cc(-c4cncc(C5CCCN5C)c4)nn3)nn2)c1 (stereo not given)
fold change (FC): 0.16

MOLECULE: CN1CCCC1c1cncc(-c2cn(CCOCCOCCOCCn3cc(-c4cncc(C5CCCN5C)c4)nn3)nn2)c1 (stereo not given)
fold change (FC): 8.1

MOLECULE: CN1CCCC1c1cncc(-c2cn(CCOCCOCCOCCOCCOCCOCCOCCOCCOCCOCCOCCOCCOCCOCCOCCOCCOCCOCCOCCOCCOCCOCCOCCOCCOCCOCCOCCn3cc(-c4cncc(C5CCCN5C)c4)nn3)nn2)c1 (stereo not given)
fold change (FC): 4.6

###

- ASSAY_TARGET: Neuronal acetylcholine receptor subunit alpha-7 (Homo sapiens, UniProt P36544)
- MEASUREMENT_NOTES: Antagonist activity at human alpha7 nAChR expressed in Xenopus laevis oocytes assessed as inhibition of ACh-induced inward current at -60 mV holding potential preincubated for 1 min followed by ACh addition by two-microelectrode voltage clamp assay
Measured IC50 by item
ENDPOINT_NAME: IC50 (µM)

COMPOUND: CN1CCCC1c1cncc(-c2cn(CCOCCOCCOCCOCCOCCOCCOCCOCCOCCOCCOCCOCCOCCOCCOCCOCCOCCOCCOCCn3cc(-c4cncc(C5CCCN5C)c4)nn3)nn2)c1 (stereo not drawn)
RESULT_UNIT: µM
TEST_RESULT: 160

COMPOUND: CN1CCCC1c1cncc(-c2cn(C[C@H]3O[C@@H]4O[C@H]5[C@H](O)[C@@H](O)[C@@H](O[C@H]6[C@H](O)[C@@H](O)[C@@H](O[C@H]7[C@H](O)[C@@H](O)[C@@H](O[C@H]8[C@H](O)[C@@H](O)[C@@H](O[C@H]9[C@H](O)[C@@H](O)[C@@H](O[C@H]%10[C@H](O)[C@@H](O)[C@@H](O[C@H]3[C@H](O)[C@H]4O)O[C@@H]%10CO)O[C@@H]9CO)O[C@@H]8CO)O[C@@H]7CO)O[C@@H]6CO)O[C@@H]5CO)nn2)c1 (stereo partly drawn)
RESULT_UNIT: µM
TEST_RESULT: 56

COMPOUND: CN1CCCC1c1cncc(-c2cn(CCOCCOCCOCCOCCOCCOCCOCCn3cc(-c4cncc(C5CCCN5C)c4)nn3)nn2)c1 (stereo not drawn)
RESULT_UNIT: µM
TEST_RESULT: 611
